Method notes: Absorbance and fluorescence emission spectra (SpectraMax M2)
Assay type: physicochemical
Test parameters: MK library, Table 5
Quantity name: λmax Absorp. (nm)

• CCOc1ccccc1CNC1=[N+]2C(=C(c3ccc(N)cc3)c3ccc(-n4cc(CO)nn4)n3[B-]2(F)F)C=C1 [MK103-70] = 472
• CC1CN(C2=[N+]3C(=C(c4ccc(N)cc4)c4ccc(-n5cc(C6CCCC6)nn5)n4[B-]3(F)F)C=C2)CC(C)O1 (stereo not shown) [MK20-5] = 476
• CCCCCC(O)c1cn(-c2ccc3n2[B-](F)(F)[N+]2=C(N4CC(C)OC(C)C4)C=CC2=C3c2ccc(N)cc2)nn1 (stereo not shown) [MK20-69] = 480
• CCCc1cn(-c2ccc3n2[B-](F)(F)[N+]2=C(NCc4cc(F)cc(F)c4)C=CC2=C3c2ccc(N)cc2)nn1 [MK412-48] = 474
• CCOc1ccccc1CNC1=[N+]2C(=C(c3ccc(N)cc3)c3ccc(-n4cc(CC(C)C)nn4)n3[B-]2(F)F)C=C1 [MK103-43] = 474
• CC1CN(C2=[N+]3C(=C(c4ccc(N)cc4)c4ccc(-n5cc(CC6CCCCC6)nn5)n4[B-]3(F)F)C=C2)CC(C)O1 (stereo not shown) [MK20-8] = 476
• COc1ccc(OC)c(CNC2=[N+]3C(=C(c4ccc(N)cc4)c4ccc(-n5cc(CO)nn5)n4[B-]3(F)F)C=C2)c1 [MK181-70] = 472

Provenance of the data: patent US9513294B2
